Assay: Selectivity index, ratio of CC50 for human Hep2 cells to IC50 for Coxsackievirus B1 Connecticut 5 infected in human Hep2 cells
Assay type: toxicity, cell-based
Details: HEp-2 cells, read-out: Ratio CC50/IC50
Items are presented alongside their recorded selectivity ratio.
measure-name: selectivity ratio

chemical_smiles=N#Cc1cc([N+](=O)[O-])ccc1Oc1ccc(Cl)c(Cl)c1 recorded_number=587
chemical_smiles=Cc1ccc(C(C)C)c(Oc2ccc([N+](=O)[O-])cc2C#N)c1 recorded_number=5.8
chemical_smiles=N#Cc1cc([N+](=O)[O-])ccc1Oc1ncn(-c2ccccc2)n1 recorded_number=3
chemical_smiles=N#Cc1cc([N+](=O)[O-])ccc1Oc1ccc(F)c(F)c1 recorded_number=405
chemical_smiles=N#Cc1cc([N+](=O)[O-])ccc1N1C[C@@H]2C[C@H](C1)c1cccc(=O)n1C2 recorded_number=3.2
chemical_smiles=N#Cc1cc([N+](=O)[O-])ccc1Oc1c(Cl)c(Cl)c(Cl)c(Cl)c1Cl recorded_number=10.9
chemical_smiles=N#Cc1cc([N+](=O)[O-])ccc1Oc1c(F)cc(F)cc1F recorded_number=690
chemical_smiles=N#Cc1cc([N+](=O)[O-])ccc1Oc1c(F)cccc1F recorded_number=507
chemical_smiles=Cc1c(Br)cc(Br)c(Oc2ccc([N+](=O)[O-])cc2C#N)c1Br recorded_number=2.2

###

Test: Cytotoxicity against human Hep2 cells assessed as decrease in cell viability after 48 hrs by neutral red uptake assay
Format: cell-based
Details: HEp-2 cells
measure-name: CC50 at 48 h (µM)

chemical_smiles=N#Cc1cc([N+](=O)[O-])ccc1Oc1ccc(Cl)c(Cl)c1 recorded_number=493
chemical_smiles=N#Cc1cc([N+](=O)[O-])ccc1Oc1ccccc1-c1cn2ccccc2n1 recorded_number=718
chemical_smiles=Cc1ccc(C(C)C)c(Oc2ccc([N+](=O)[O-])cc2C#N)c1 recorded_number=94.3

Data origin: ChEMBL document CHEMBL4043211
